- Test system: NCI-H322M lung
- assay notes: NCI-60 one-dose screen, 48 h (100 = growth as untreated, 0 = no growth, -100 = all killed)
- condition info: 10 µM unless noted
Compounds without any hit were thinned out: in the full panel of roughly 83,000, 20% have a hit.
// N strictly below 70% in growth; Y otherwise

1. COc1ccc(C2=C(c3cn(C)c4ccccc34)C(=O)OC2)cc1OC; N
2. CCN(CCO)CCC(=O)c1ccc([N+](=O)[O-])cc1; Y
3. O=C1/C(=C\c2cccn2Cc2ccccc2)c2ccccc2N1c1c(Cl)cccc1Cl; N

## Input Check if growth >= 70% (inclusive). Item: Brc1ccc2c(c1)CN(C1CCCCC1)CO2
## Output Y

## Input Hi team, for C#C[C@]1(O)CC[C@H]2[C@@H]3CC=C4c5nc(Nc6ccc(OC)cc6OC)sc5CC[C@]4(C)[C@H]3CC[C@@]21C , is the recorded growth at or above 70%?
## Output N

## Input Determine whether measured growth meets or exceeds 70% for COc1ccc(C(C(=O)O)c2ccc(OC)cc2)cc1
## Output Y

## Input Reported growth reaches at least 70% for CN(Cc1cccc(C(F)(F)F)c1)C(=O)[C@@H](CC(=O)N1CCC(N2CCCCC2)CC1)N1C(=O)[C@@H](N2C(=O)OC[C@@H]2c2ccccc2)[C@H]1/C=C/c1ccccc1 ?
## Output Y

## Input Record COc1ccc2c(c1)C(C)Cc1c(Cl)nc(C)nc1N2C (centres undefined) ; criterion: growth no lower than 70%. Met?
## Output N

## Input // inclusive: growth at least 70%? input: COc1cc(C(=O)/C=C/c2c(-c3ccc(F)cc3)nc3sccn23)cc(OC)c1OC
## Output N

Data origin, for the record: PubChem BioAssay (NCI)
